meta.source: ChEMBL document CHEMBL1201862

# Test system: NCI/ADR-RES
# Assay comment: NCI tumour cell line growth inhibition, 48 h
Activity calls are given as the source filed them. Rule as the data show it: active = GI50 up to about 1.1 µM and inactive = higher.
Assign a class; possible classes are 1 (yes) for active, 0 (no) for inactive

The following compounds have reported results that may help.
Give the logged outcome of this assay for the following compound: COc1ccc(C(=O)C2CC3(CCC2(O)c2ccc(OC)cc2)CC(=O)Nc2ccccc2C3=O)cc1 (stereo unspecified)
0 (no)

Give the logged outcome of this assay for the following compound: O=C(O)CCC(=O)c1ccc2ccc3cccc4ccc1c2c34
0 (no)

Give the logged outcome of this assay for the following compound: Cc1ccc(NC(=O)CC(=O)N2N=C(N(c3ccccc3)c3ccccc3)CC2c2ccccc2)cc1 (stereo unspecified)
0 (no)

***
Give the logged outcome of this assay for the following compound: N#C[C@H]1C(=O)C(c2nc3ccccc3[nH]2)S[C@H]1c1ccccc1 (stereo partly specified)
0 (no)

Give the logged outcome of this assay for the following compound: CN(C)[C@@H]1C(O)=C(C(=O)NCNc2nc3[nH]nnc3c(=O)[nH]2)C(=O)[C@@]2(O)C(O)=C3C(=O)c4c(O)cccc4[C@@](C)(O)[C@H]3C[C@@H]12
0 (no)

Give the logged outcome of this assay for the following compound: C/C(=N\Nc1nc2cccnc2s1)c1ccccn1
1 (yes)

###

# Tested on: HCT-15
Experimental readout: GI50

Here is how some compounds turned out for GI50.
Tell me reported GI50 for COC(=O)C(C(=O)C(=O)Nc1ccccc1OC)c1csc(-n2nc(-c3ccccc3)cc2-c2ccccc2)n1 (stereo not given) , tested with HCT-15.
> 100 µM

Tell me reported GI50 for Sc1nnc(-c2ccnc(-c3nnc(S)[nH]3)c2)[nH]1 , tested with HCT-15.
> 100 µM

Tell me reported GI50 for Cc1cccc(C)c1NC(=O)C(Cc1c[nH]c2ccccc12)NC(=O)OCc1ccccc1 (stereo not given) , tested with HCT-15.
22.3 µM

Tell me reported GI50 for CC(=O)N1C(OCc2ccccc2)CCN1c1ccccc1 (stereo not given) , tested with HCT-15.
> 10 µM

Tell me reported GI50 for NC(=O)c1cccc(OCC(O)CO)c1 (stereo not given) , tested with HCT-15.
> 100 µM

Tell me reported GI50 for COC(=O)Cc1cc(O)c2c(c1O)C(=O)c1ccccc1C2=O , tested with HCT-15.
> 100 µM

Tell me reported GI50 for O=S(=O)(C1=CC(S(=O)(=O)c2ccccc2)CN(Cc2ccccc2)C1c1cccc2ccccc12)c1ccccc1 (stereo not given) , tested with HCT-15.
> 69 µM

Tell me reported GI50 for CCOC(=O)C=C1CCN(C(=O)c2ccccc2)CC1 , tested with HCT-15.
> 100 µM

Tell me reported GI50 for Oc1ccccc1/C=N/c1ccc(-c2nc3ccccc3[nH]2)cc1 , tested with HCT-15.
29.6 µM

Tell me reported GI50 for COc1cc(/N=N\c2cccc(S(=O)(=O)O)c2)ccc1/N=N\c1ccc(/C=C/c2ccc(-n3on3-c3ccc(/C=C/c4ccc(/N=N/c5ccc(/N=N\c6cccc(S(=O)(=O)O)c6)cc5OC)cc4S(=O)(=O)O)c(S(=O)(=O)O)c3)cc2S(=O)(=O)O)c(S(=O)(=O)O)c1 , tested with HCT-15.
> 100 µM

Then there is this compound:
Tell me reported GI50 for CCCCSC1=N/C(=C\c2ccco2)C(Cl)=N1 , tested with HCT-15.
> 100 µM
